# credit: patent US20140056903A1

Target: T1, monkey GFRα3 expressed with a C-terminal myc-myc-hexahistidine tag (monkey (Mf), UniProt O60609 32-374 (human entry), limits assumed)
T1 construct: also called MfGFRα3-mmh; MfGFRα3-mmH
T1 chain: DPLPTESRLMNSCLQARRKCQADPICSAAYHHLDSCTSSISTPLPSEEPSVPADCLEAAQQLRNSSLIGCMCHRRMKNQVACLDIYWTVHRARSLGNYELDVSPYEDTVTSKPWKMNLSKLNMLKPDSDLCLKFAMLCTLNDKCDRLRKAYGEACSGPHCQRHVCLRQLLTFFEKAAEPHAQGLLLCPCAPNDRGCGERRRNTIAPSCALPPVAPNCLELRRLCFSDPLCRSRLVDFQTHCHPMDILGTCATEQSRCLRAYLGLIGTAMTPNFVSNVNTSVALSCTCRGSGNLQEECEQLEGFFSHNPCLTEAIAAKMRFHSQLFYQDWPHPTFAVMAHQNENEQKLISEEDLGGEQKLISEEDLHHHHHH
Experiment: SPR, Ab captured, 37C
property-measured: t1/2 (min)
Just the number please, in min, no unit attached.

// solved cases for t1/2 follow
Lookup: Using known records, supply t1/2 for H4H2350P (antibody, human IgG4, V domains shown, human IgG4 Fc (H4H)) VH: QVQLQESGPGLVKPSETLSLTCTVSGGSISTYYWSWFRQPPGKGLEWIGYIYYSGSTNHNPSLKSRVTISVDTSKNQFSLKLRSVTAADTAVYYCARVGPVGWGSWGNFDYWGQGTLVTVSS VL: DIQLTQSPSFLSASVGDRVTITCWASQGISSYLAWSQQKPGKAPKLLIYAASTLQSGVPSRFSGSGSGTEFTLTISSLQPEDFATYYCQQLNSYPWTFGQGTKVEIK
Found: 13

Lookup: Using known records, supply t1/2 for H1M2236N (antibody, V domains shown, chimeric, human variable and mouse constant domains (H1M)) VH: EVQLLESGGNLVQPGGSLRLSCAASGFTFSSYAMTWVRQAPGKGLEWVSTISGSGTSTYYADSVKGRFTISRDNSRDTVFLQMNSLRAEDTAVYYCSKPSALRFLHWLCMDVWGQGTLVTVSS VL: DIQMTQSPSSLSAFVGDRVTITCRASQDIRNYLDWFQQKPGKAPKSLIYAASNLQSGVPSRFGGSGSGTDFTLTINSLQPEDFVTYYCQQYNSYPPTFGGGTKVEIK
Found: 10

Continue with the next binder.
Lookup: Using known records, supply t1/2 for H4H2295S (antibody, human IgG4, V domains shown, human IgG4 Fc (H4H)) VH: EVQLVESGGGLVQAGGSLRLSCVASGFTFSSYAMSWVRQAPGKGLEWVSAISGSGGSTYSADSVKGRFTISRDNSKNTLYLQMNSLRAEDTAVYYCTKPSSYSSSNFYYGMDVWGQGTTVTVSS VL: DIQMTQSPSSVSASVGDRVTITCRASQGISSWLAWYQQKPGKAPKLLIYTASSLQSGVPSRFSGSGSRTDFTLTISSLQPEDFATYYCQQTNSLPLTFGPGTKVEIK
Found: 2
